Biological target: T1, recombinant human Aggrecan G1-IGD-G2 (human, UniProt P16112 20-676)
T1 construct: Only the G1-IGD-G2 region was used (R&D Systems 1220-PG is named for the immunogen); also called Hu G1-IGD-G2
Test: ELISA on recombinant G1-IGD-G2
pEC50: −log10 of the molar value.

binder	pEC50
C01010097 (608A05-ALB26) (VHH, not shown: small tags and cut ends) VHH: DVQLVESGGGLVQPGGSLRLSCAASGRTFSTYTMGWFRQAPGKEREFVAAISWSGGTTYYADSVKGRFTISRDNSKNTVYLQMNSLRPEDTAVYYCAARPRYYYYSLYSYDYWGQGTLVTVSS	9.62
C01010094 (604F02-ALB26) (VHH, not shown: small tags and cut ends, also called C010100094) VHH: DVQLVESGGGLVQPGGSLRLSCAASGRTFSSYTMGWFRQAPGKEREFVAAISWSGGRTYYADSVKGRFTISRDNSKNTVYLQMNSLRPEDTAVYYCAAYRRRRASSNRGLWDYWGQGTLVTVSS	8.92
C01010106 (ALB26-604F02-604F02) (VHH, not shown: large carriers; small tags and cut ends) VHH 1: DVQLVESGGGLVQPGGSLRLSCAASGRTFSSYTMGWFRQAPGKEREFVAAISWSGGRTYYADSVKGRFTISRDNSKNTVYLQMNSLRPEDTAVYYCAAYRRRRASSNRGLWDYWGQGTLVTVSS VHH 2: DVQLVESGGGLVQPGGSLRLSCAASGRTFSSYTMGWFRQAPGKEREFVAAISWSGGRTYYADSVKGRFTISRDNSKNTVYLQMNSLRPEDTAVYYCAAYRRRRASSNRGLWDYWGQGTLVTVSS	10.18
